# Tgt: Lethal(3)malignant brain tumor-like protein 4 (Homo sapiens)
# Sequence (Q8NA19 whole entry): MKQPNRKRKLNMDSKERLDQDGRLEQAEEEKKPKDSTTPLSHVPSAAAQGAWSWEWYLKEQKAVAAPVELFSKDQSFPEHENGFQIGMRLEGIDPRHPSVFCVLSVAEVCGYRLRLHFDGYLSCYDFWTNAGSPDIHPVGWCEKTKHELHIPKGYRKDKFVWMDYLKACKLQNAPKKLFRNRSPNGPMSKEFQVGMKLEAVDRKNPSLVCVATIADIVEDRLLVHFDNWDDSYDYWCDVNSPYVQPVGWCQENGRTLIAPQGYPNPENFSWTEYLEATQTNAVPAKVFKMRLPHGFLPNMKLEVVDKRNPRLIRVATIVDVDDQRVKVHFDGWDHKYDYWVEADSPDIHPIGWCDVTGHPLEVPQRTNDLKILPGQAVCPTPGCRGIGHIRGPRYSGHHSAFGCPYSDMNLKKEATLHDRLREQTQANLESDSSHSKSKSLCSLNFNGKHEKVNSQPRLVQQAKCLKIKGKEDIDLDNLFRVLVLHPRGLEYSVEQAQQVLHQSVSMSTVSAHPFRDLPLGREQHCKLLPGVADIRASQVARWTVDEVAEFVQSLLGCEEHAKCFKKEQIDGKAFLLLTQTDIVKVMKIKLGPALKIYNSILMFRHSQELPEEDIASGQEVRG
# Experiment Description: Binding affinity to L3MBTL4 by chemiluminescent assay
# Applied Conditions: read-out: IC50
Quantity Measured: IC50 (µM)
Write down the numeric answer in µM and omit the unit.

Problem: Fill in the recorded IC50 for this compound, with Lethal(3)malignant brain tumor-like protein 4 (Homo sapiens) as test system: `O=C(c1cncc(Br)c1)N1CCC(N2CCCC2)CC1`
Solution: 69
